# TARGET_OR_TEST_SYSTEM: SALL4 ZNF1-2 (Homo sapiens, UniProt Q96SW2+Q9UJQ4)
# Construct: IKZF1Δ, IKZF2Δ, GSPT1 and SALL4 ZnF1-2 were subcloned; expressed in transfected cells; host or cells: Flp-In 293
# Sequence (Q9UJQ4 378-438 limits assumed): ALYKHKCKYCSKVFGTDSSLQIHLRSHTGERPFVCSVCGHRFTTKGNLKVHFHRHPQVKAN
# Sequence (Q96SW2 whole entry): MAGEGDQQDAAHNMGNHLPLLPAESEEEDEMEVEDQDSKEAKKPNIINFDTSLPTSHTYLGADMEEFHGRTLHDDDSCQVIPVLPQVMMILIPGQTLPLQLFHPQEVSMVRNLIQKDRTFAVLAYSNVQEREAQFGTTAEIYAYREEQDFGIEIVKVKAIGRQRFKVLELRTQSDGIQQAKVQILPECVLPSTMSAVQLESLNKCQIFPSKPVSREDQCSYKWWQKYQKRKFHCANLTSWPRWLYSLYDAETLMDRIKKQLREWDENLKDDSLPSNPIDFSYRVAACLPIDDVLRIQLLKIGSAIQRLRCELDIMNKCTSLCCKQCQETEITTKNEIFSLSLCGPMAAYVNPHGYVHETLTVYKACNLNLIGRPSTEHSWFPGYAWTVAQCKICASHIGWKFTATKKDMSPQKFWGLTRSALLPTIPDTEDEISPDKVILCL
# Sequence (Q16531 whole entry partner): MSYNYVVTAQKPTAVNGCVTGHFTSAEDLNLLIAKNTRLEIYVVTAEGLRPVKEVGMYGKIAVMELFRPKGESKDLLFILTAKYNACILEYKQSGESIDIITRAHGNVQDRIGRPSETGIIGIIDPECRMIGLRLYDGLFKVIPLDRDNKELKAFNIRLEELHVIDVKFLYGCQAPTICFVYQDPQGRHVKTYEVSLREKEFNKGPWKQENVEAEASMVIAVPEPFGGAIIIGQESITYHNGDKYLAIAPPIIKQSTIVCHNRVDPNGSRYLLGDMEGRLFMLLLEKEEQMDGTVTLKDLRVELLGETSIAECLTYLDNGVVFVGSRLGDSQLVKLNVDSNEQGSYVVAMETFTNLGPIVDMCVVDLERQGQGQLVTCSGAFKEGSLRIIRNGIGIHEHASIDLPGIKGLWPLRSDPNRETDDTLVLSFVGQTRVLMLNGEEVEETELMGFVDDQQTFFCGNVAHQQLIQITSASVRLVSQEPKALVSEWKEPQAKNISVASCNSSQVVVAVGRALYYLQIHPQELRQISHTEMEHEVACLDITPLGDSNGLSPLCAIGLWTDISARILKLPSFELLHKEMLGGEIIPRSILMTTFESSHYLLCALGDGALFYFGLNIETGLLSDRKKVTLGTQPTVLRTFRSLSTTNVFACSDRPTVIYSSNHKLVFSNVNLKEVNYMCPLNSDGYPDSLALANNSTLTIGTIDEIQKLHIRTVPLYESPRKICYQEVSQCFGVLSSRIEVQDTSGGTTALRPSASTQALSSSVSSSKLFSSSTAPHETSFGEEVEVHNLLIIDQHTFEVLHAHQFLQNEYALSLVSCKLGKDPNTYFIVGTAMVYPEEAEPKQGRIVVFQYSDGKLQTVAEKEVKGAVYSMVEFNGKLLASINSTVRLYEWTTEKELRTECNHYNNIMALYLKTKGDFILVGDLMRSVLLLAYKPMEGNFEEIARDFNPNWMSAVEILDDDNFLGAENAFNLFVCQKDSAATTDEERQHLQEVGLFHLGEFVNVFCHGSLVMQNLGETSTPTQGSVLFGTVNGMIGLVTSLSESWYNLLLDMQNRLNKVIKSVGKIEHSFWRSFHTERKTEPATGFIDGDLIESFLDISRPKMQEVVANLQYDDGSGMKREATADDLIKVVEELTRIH
# PROCEDURE_SUMMARY: Cellular degradation assay, eGFP-SALL4 ZnF1-2 fusion with mCherry reporter in Flp-In 293 cells
# Type: cell-based
# RECORDED_CONDITIONS: compound concentration 2.00E−07; 5 h incubation; n=1
For each record, check the reported SALL4 ZNF1-2 GFP/RFP Relative Abundance: if it is below 0.9 write class 1, else write class 0.

As a guide, the following entries are already answered.
O=C1CCC(N2C(=O)C=C(Nc3cccc(Cl)c3)C2=O)C(=O)N1 (stereo not shown) [Compound 26] ... class 1
O=C1CCC(N2C(=O)C=C(Nc3nccs3)C2=O)C(=O)N1 (stereo not shown) [Compound 19] ... class 1
Cc1ccc(NC2=CC(=O)N(C3CCC(=O)NC3=O)C2=O)cc1C (stereo not shown) [Compound 24] ... class 0
CN(C)C(=O)c1ccc(NC2=CC(=O)N(C3CCC(=O)NC3=O)C2=O)cc1 (stereo not shown) [Compound 34] ... class 0
O=C(O)CCCCNC1=CC(=O)N(C2CCC(=O)NC2=O)C1=O (stereo not shown) [Compound 22] ... class 0

Input line: Consider the compound O=C(O)CCCNC1=CC(=O)N(C2CCC(=O)NC2=O)C1=O (stereo not shown) [Compound 21] . Is its SALL4 ZNF1-2 GFP/RFP Relative Abundance strictly less than 0.9?
Output line: class 0

Input line: Queued: Cc1ccc(NC(=O)NCc2ccc(NC3=CC(=O)N(C4CCC(=O)NC4=O)C3=O)cc2)cc1Cl (stereo not shown) [Compound 46]
Output line: class 1

FYI, the data here is from patent US12227488B2.
